Experiment: ASC/caspase-1 reporter retest in S. cerevisiae at one dose, specificity check for NALP1 project (AID 488857)
Details: S. cerevisiae ASC/Caspase-1, beta-galactosidase luminescence, 24 h; at 10 µM; active compounds read high
The whole screen tested about 1,400 compounds, of which about 560 (40%) were called active. The set was probably picked from earlier hits. The list shows a part of the results.
Everything with inhibition lower than 40% is Criterion not met; everything else, including exactly 40%, is Criterion met.

# example entries with known answers
INSERT INTO assay_data (compound, group) VALUES
  ('COc1ccccc1-c1nnc2sc(COc3ccc(Cl)cc3)nn12', 'Criterion met'),
  ('COC(=O)c1cc(=O)n(-c2ccccc2)c(=Nc2ccccc2)s1', 'Criterion met'),
  ('C(#Cc1ccc(C#CCN2CCCC2)cc1)CN1CCCC1', 'Criterion met'),
  ('O=C1c2ccccc2-c2cccc(NS(=O)(=O)c3ccc(C(F)(F)F)cc3)c21', 'Criterion not met'),
  ('O=C(Cc1noc2ccccc12)Nc1ccc(Cl)cc1', 'Criterion met');

INPUT: inhibition >= 40% for `O=C1C(Nc2ccccc2)=C/C(=N/S(=O)(=O)c2cccs2)c2ccccc21` ?
OUTPUT: Criterion met

INPUT: Determine whether this compound has inhibition no lower than 40%: CC(C)C(NS(=O)(=O)c1ccc2c(c1)oc(=O)n2C)C(=O)N1CCN(C2CCCCC2)CC1 (stereo unspecified)
OUTPUT: Criterion not met

INPUT: Hi, just wondering whether `O=S(=O)(Nc1cccnc1)c1cccs1` shows inhibition of 40% or higher.
OUTPUT: Criterion not met

INPUT: Dear colleague, could you confirm whether `O=C(Nc1ccccc1)N1CCc2ccccc2C1` has inhibition at or above 40%?
OUTPUT: Criterion met

INPUT: Could you tell me if the measured inhibition of `COc1ccccc1C(=O)Nc1ccc(OCc2nnc3c4ccccc4c(C)nn23)cc1` reaches 40% or more?
OUTPUT: Criterion met

====

Assay: ASC/caspase-1 reporter retest in S. cerevisiae at one dose, specificity check for NALP1 project (AID 488857)
Details: S. cerevisiae ASC/Caspase-1, beta-galactosidase luminescence, 24 h; at 10 µM; active compounds read high
In all, about 1,400 compounds went through this assay and about 560 (40%) were called active. So high a share suggests a set chosen from earlier hits. The list shows a part of the results.
Binary call on inhibition: class 1 from 40% upward, class 0 beneath that.

Here's what some known entries look like.
INSERT INTO assay_data (molecule, group) VALUES
  ('O=C1S/C(=C\c2ccc(N3CCOCC3)o2)C(=O)N1c1ccccc1', 'class 1'),
  ('O=C(O)CCCCc1nc2ccccc2s1', 'class 0'),
  ('CC(=O)Nc1ccc(C(=O)CSc2nnc(Cc3ccccc3)o2)cc1', 'class 0'),
  ('O=C(Nc1ccc2nc3n(c(=O)c2c1)CCCC3)c1cc([N+](=O)[O-])ccc1F', 'class 1'),
  ('O=C(c1ccccc1)c1ccc(OCC(O)CNC2CCCc3ccccc32)cc1 (stereo not drawn)', 'class 0'),
  ('CS(=O)(=O)N(CC(=O)Nc1ccccc1Sc1ccccc1)C1CCCCC1', 'class 0'),
  ('CC(C)C(C(=O)O)N1C(=O)/C(=C/c2cccn2C)SC1=S (stereo not drawn)', 'class 1'),
  ('O=C1N/C(=N\N=C\c2cccnc2)SC1Cc1ccc(SC(F)F)cc1 (stereo not drawn)', 'class 0');

INPUT: Please tell me: is the molecule `COc1cc2c(cc1NC(=S)Nc1ccccc1C)oc1ccccc12` at or over 40% in terms of inhibition?
OUTPUT: class 1

INPUT: Check the entry `Cc1cc(C)cc(OCc2nnc(SCC(=O)OC(C)C)o2)c1` : does inhibition equal or exceed 40%?
OUTPUT: class 1

INPUT: Quick check: does `O=c1c2c(C(F)(F)F)cc(C(F)(F)F)nc2[nH]n1-c1ccccc1` have inhibition greater than or equal to 40%?
OUTPUT: class 0

INPUT: Quick check: does `Cc1ccc(C(=O)/C=C\C(=O)c2ccc(C)cc2)cc1` have inhibition greater than or equal to 40%?
OUTPUT: class 1

INPUT: State whether the measured inhibition reaches 40%, counting equality as reaching it, for `CC(C)(C)OC(=O)NCCCCCc1nnc(SCc2ccccc2)o1`
OUTPUT: class 1

INPUT: Reported inhibition reaches at least 40% for `COc1ccc(Nc2ccnc(Nc3ccc(OC)cc3)n2)cc1` ?
OUTPUT: class 1

INPUT: Could you tell me if the measured inhibition of `CCN(CC)c1ccc(/C=C2/SC(=O)N(C(C)C)C2=O)o1` reaches 40% or more?
OUTPUT: class 1

INPUT: Test whether the molecule `Cc1ccc(C(=O)c2no[n+]([O-])c2C(=O)c2ccc(C)cc2)cc1` records inhibition of 40% or higher.
OUTPUT: class 1

INPUT: Hello, I need to know if `Fc1ccc(Nc2ccnc(Nc3ccc(F)cc3)n2)cc1` has measured inhibition not below 40%. Thanks!
OUTPUT: class 1

INPUT: Say whether `Cc1nc(N)sc1N=Nc1ccc(Br)cc1` shows inhibition of 40% or more.
OUTPUT: class 1

INPUT: // inclusive: inhibition at least 40%? input: `CCOc1ccccc1N1CCN(C(=O)CCCc2nc3ccccc3s2)CC1`
OUTPUT: class 1

INPUT: Has COc1ccc2c(c1)C1=NN(/C(C)=C/C(C)=O)C(c3cccc(F)c3)C1CC2 (stereo not drawn) a recorded inhibition greater than or equal to 40%?
OUTPUT: class 1

INPUT: Is inhibition at least 40%? Consider `COCC(=O)n1nc(-c2ccc(Cl)cc2)nc1NCc1ccc(F)cc1`
OUTPUT: class 0

INPUT: Quick check: does `CC(C)CC(=O)N1CCN(S(=O)(=O)c2ccccc2)CC1` have inhibition greater than or equal to 40%?
OUTPUT: class 0
